Where these numbers come from: ChEMBL document CHEMBL1131320

target: Transcription termination factor rho (Escherichia coli) (UniProt P0AG30); assay: The compound was tested for the % inhibition of rho poly(C)-stimulated ATPase activity at 400 uM
Sequence (P0AG30 whole entry, looked up): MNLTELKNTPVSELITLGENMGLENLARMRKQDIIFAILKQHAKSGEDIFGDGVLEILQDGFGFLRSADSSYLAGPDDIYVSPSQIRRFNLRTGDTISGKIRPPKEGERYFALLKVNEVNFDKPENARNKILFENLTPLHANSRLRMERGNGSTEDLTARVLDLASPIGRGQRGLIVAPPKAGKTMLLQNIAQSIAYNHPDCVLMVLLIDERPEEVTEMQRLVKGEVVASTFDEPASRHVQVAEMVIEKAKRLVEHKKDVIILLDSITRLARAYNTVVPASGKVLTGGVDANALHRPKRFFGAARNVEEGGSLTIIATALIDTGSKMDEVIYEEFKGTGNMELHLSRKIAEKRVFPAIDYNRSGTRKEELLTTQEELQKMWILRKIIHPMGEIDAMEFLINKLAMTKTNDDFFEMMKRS
# cutoff 20% applies to inhibition; >= gives Met, < gives Not met

// known answers, use as guide
C=C1CCOC2([C@@H](O)[C@@](C)(O)CO)NC(=O)[C@@]1(N(C)C)NC2=O = Not met
C=C1CCOC2([C@@H](O)[C@@](C)(O)CO)NC(=O)[C@@]1(NO)NC2=O = Met
C=C1CCOC2([C@@H](O)[C@@](C)(O)CO)NC(=O)[C@@]1(NOC)NC2=O = Not met
C=C1CCOC2([C@@H](O)[C@@](C)(O)CO)NC(=O)[C@@]1(N(C)O)NC2=O = Not met

Ask: Please tell me: is the compound C=C1CCOC2([C@@H](O)[C@@](C)(O)CO)NC(=O)[C@@]1(S)NC2=O at or over 20% in terms of inhibition?
Result: Met

Ask: Does the compound C=C1CCOC2([C@@H](O)[C@@](C)(O)CO)NC(=O)[C@@]1(NC(C)=O)NC2=O have recorded inhibition that is 20% or more?
Result: Not met

Ask: Record C=C1CCOC2([C@@H](O)[C@@](C)(O)CO)NC(=O)[C@@]1(N(C)OC)NC2=O ; criterion: inhibition no lower than 20%. Met?
Result: Not met

Ask: Check this compound for inhibition at or above 20%: C=C1CCOC2([C@@H](O)[C@@](C)(O)CO)NC(=O)[C@@]1(NC)NC2=O
Result: Not met
